This collection of values is drawn from PubChem BioAssay (NCI).

system: SF-539 CNS; assay: NCI-60 one-dose screen, 48 h (100 = growth as untreated, 0 = no growth, -100 = all killed); settings: 10 µM unless noted
Compounds without any hit were thinned out: in the full panel of roughly 83,000, 20% have a hit.
metric: growth (%)
// units = %; emit number, no label

compound: O=C(Nc1ccc(N2CCNCC2)cc1)c1[nH]ncc1Nc1ncnc2sc3c(c12)CCC3
metric: growth
numericReadout: -98.8

compound: COc1ccc(C2=C(c3cccc(OC)c3)C(=O)c3ccc(C)nc3C2=O)cc1
metric: growth
numericReadout: 43

compound: Cc1ccc(Cn2c(N3CCC(C(=O)NCc4cccs4)CC3)nc3ccccc32)cc1
metric: growth
numericReadout: 88

compound: COc1ccc(-n2c(C(O)c3ccccc3)nn(CN3CCOCC3)c2=S)cc1 (stereo not given)
metric: growth
numericReadout: 102

compound: O=C(CN1C(=O)/C(=C\c2ccc(Cl)cc2)SC1=S)Nc1ncc(Cc2ccc(Cl)cc2)s1
metric: growth
numericReadout: 94.3

compound: Cc1ccc2c(n1)C(=O)C(Oc1ccc(Br)cc1)=CC2=O
metric: growth
numericReadout: 104

compound: O=c1oc2ccc(F)cc2c(=O)n1-c1ccc(I)cc1F
metric: growth
numericReadout: 3.66

compound: O=C(Nc1ncc(Cc2cccc(C(F)(F)F)c2)s1)C1COc2ccccc2O1 (stereo not given)
metric: growth
numericReadout: 95.8

Query: For the record O=c1oc2ccc(I)cc2c(=O)n1-c1ccc(F)cc1F , what value of growth is listed for SF-539 CNS?
Result: 13.7

Query: Try this compound next: O=C1c2ccccc2C(=O)c2c1ccc1[nH]c(CCl)nc21
Result: 37.9
